# target-system: CBX5
# assay-info: pooled miR-30 sensor sort-seq; sequence = guide strand
# condition-set: shRNA
readout-name: sensor-assay potency score (higher = more potent)
# answer = number (no unit)

Reference set (6 entries):
TTAGATTTGATGTCATCGGCAC	0.364
TTAGGAACATTAAATCACCACA	-0.835
TTTGATGTCATCGGCACTGTTT	-0.553
TTAAATCACCACAGGAATCTGT	-0.0279
TTACTTTCTGACTTCTCCCTGG	0.106
TCACATTAGCTTCTTTTGCAAG	-1.01

Okay, now this sequence:
Entry under test: TAAAATGCTATCACAATTTGTG . Its sensor-assay potency score (higher = more potent) was -0.0381

====

# target-system: TRAPPC2L
# assay-info: pooled miR-30 sensor sort-seq; sequence = guide strand
# condition-set: shRNA
readout-name: sensor-assay potency score (higher = more potent)
# answer = number (no unit)

TTTCGTTGTCTCGAAGGGCTGT	0.949
TTCGTTGTCTCGAAGGGCTGTG	0.76
TAGTTGAGAGAACATGCACAGC	-1.15

Okay, now this sequence:
Entry under test: TGTAGCTTCCGGAACATGCTGC . Its sensor-assay potency score (higher = more potent) was 0.0954

====

# target-system: RNPEPL1
# assay-info: pooled miR-30 sensor sort-seq; sequence = guide strand
# condition-set: shRNA
readout-name: sensor-assay potency score (higher = more potent)

TCTGTGTCTGCTTCAGCCTTGC	0.0808

Entry under test: TAGTACACGAAGCAGTAGCCCT . Its sensor-assay potency score (higher = more potent) was -0.845

Entry under test: TGAACTTGTACTTCTCCACATA . Its sensor-assay potency score (higher = more potent) was -0.899

Entry under test: TGGCAGGAAGACAATGTCGTAC . Its sensor-assay potency score (higher = more potent) was -1.01

Entry under test: TTGTACTTCTCCACATAGGCTC . Its sensor-assay potency score (higher = more potent) was -0.15

Entry under test: TAGGTGAACAGGTTCATCAGGT . Its sensor-assay potency score (higher = more potent) was 0.726

====

# target-system: EDF1
# assay-info: pooled miR-30 sensor sort-seq; sequence = guide strand
# condition-set: shRNA
I would appreciate it if you labelled entries class 1 when sensor-assay potency score (higher = more potent) is -1 or higher, otherwise class 0.

Identify whether the reported sensor-assay potency score (higher = more potent) of the following sequence is -1 or greater: AATAGAATGTTGTTTGTTCTGG
class 1

Identify whether the reported sensor-assay potency score (higher = more potent) of the following sequence is -1 or greater: TGTTCTTGGTAATAGAATGTTG
class 0

Identify whether the reported sensor-assay potency score (higher = more potent) of the following sequence is -1 or greater: TTTCCAATGTCCTTTCCCCGGA
class 1

Identify whether the reported sensor-assay potency score (higher = more potent) of the following sequence is -1 or greater: ATTTCTTGGAAGTCTCCACATC
class 0

Identify whether the reported sensor-assay potency score (higher = more potent) of the following sequence is -1 or greater: TCTTGGTAATAGAATGTTGTTT
class 0

Identify whether the reported sensor-assay potency score (higher = more potent) of the following sequence is -1 or greater: TGCAGCTCCTCTGTCTCCCGGT
class 1

====

Let's look at some sequences and their measured sensor-assay potency score (higher = more potent).
# target-system: NBPF1
# assay-info: pooled miR-30 sensor sort-seq; sequence = guide strand
# condition-set: shRNA
# answer = number (no unit)

Reference set (5 entries):
TTTATGAGGTCTTCGCACTCTT	0.0563
TTGATTTCTAAAATGTTCGTCT	0.0571
TTATGAGGTCTTCGCACTCTTC	-1.54
TTCGTTGATCTTCTTCCCCTTC	-0.152
TCTTCGTTGATCTTCTTCCCCT	-0.277

Okay, now this sequence:
Entry under test: TTGGTCTTCTTCCTCTTCCTGG . Its sensor-assay potency score (higher = more potent) was -0.175
